# Test system: MS2 coat protein
# protocol-text: apparent KD of MS2 coat protein; designed switch direction (-1 OFF switch, 1 ON switch): -1; higher = weaker reporter binding
# measurement-parameters: input ligand: none
measured-property: apparent KD of MS2 coat protein (nM)
Number only, in nM; omit the unit.

Answered cases to consult:
INSERT INTO measurements (item_sequence, measured_result) VALUES
  ('AUAAAACAUGUAGGAUAUGCGUAGCGAAGCUAUGCAGAAGGACAUGAGGAUCACCCAUGUCUUUCCGUCUGCGAACAGACGGAA [Mat - Exclusion NG 1 - Mod of JL - D44] (Eterna round: R96, puzzle: Exclusion NG 1)', 21),
  ('GGAUCGAAUGUGAGGAUAUGCUGGUCCUUGGAUCAGCAGAAGGCACAUGAGGAUCACCCAUGUGAUCAAGAUCC [Eli bmx4 4.77] (Eterna round: R97, puzzle: Brourd''s mod of Exclusion 4)', 910),
  ('CUAAAUCAUGUAGGAUAUGCGUGGCAAAGCUAUGCAGAAGGACAUGAGGAUCACCCAUGUCAUUCCGUCUGGAGACAGACGGGA [Mat - Exclusion NG 1 - Mod of JL - D54] (Eterna round: R96, puzzle: Exclusion NG 1)', 25);

As a next step, examine the sequence that follows.
input: Recorded apparent KD of MS2 coat protein of GGAGAUCGAGGAUAUACAUGAGGAUCACCCAUGUCCGUAGACUGGGAUCGCGGCAGUGGUAGAAGGUGGAAAAU [Eternabot (L2) Solution 67] (Eterna round: R97, puzzle: Exclusion 3) , please.
output: 160

---

// values below are reported apparent KD of MS2 coat protein
# System: MS2 coat protein
# protocol-text: apparent KD of MS2 coat protein, switch ON state; designed switch direction (-1 OFF switch, 1 ON switch): -1; higher = weaker reporter binding
# measurement-parameters: FMN input: 0 or 200 uM; Eterna round: R93 (includes R88 designs)

INSERT INTO measurements (item_sequence, measured_property, measured_result) VALUES
  ('AGAAAACAUGAGGAUCACCCAUGUGAGGAUAUCGAUGUCCAAAAAAAAGUGCGGGACUCGAGAAGGCACUUGGG', 'apparent KD of MS2 coat protein', '0.0389 µM'),
  ('AACAGUACAGGAUAUACAUGAGGAUCACCCAUGUGGGUAAAAAGAUCGAGAGAUCCAUGUAGAAGGGUACUGGA [JL In the Red 05]', 'apparent KD of MS2 coat protein', '0.0367 µM'),
  ('AAAAGACAUGAGGAUCACCCAUGUGAGGAUAUGACGUAAAUAAAGAAAGAAGAAAUCGUCAGAAGGCACACCUA [55%, Disencluded 2, 1]', 'apparent KD of MS2 coat protein', '0.0295 µM'),
  ('AAAAAGAUAGGAUAUACAUGAAAAAAAAAAAAAAAAAAAAGACAUGAGGAUCACCCAUGUAGAAGGGUCAAAAA [water''s exclusion 2 2nd]', 'apparent KD of MS2 coat protein', '0.0503 µM'),
  ('AGCUAGUCAGGAUAUACGAACAUGUCAAAAGACGUGAACGGACAUGAGGAUCACCCAUGUAGAAGGGACUAGCA [Diamond 5]', 'apparent KD of MS2 coat protein', '0.0162 µM'),
  ('AAAUAACAUGAGGAUCACCCAUGUUAGGAUAUCUAAAUGGUGUAAACACCAGAAGAUGAGAGAAGGGACGUGGA [Enlalees]', 'apparent KD of MS2 coat protein', '0.0179 µM'),
  ('AAAAGUUGAGGAUAUACAAAAUGAUUGCGAAAUCAAUUAAAACAUGAGGAUCACCCAUGUAGAAGGCGAUAAAA [Banishment 4 - Jieux - Exclusion 2]', 'apparent KD of MS2 coat protein', '0.027 µM'),
  ('AAAUAGCAAGGAUAUACAUGAGGAUCACCCAUGUGAAAAAGAUAUGGAAUAGAAUAGAGUAGAAGGUGCAAAUA [Ex 3 Tesla 8]', 'apparent KD of MS2 coat protein', '0.0404 µM');

input: Bench note: what apparent KD of MS2 coat protein did GGAUGUGUAGGAUAUACAUGAGGAUCACCCAUGUGAGAGAAAAAAGUGAGAAAGAAAAGUAGAAGGACGUGUCG [salish99-ex3-89] show?
output: 0.041 µM

input: // query apparent KD of MS2 coat protein value for entry AACAAGACAGGAUAUACAUGAGGAUCACCCAUGUGAGAAUUAAGUGGCGUACCACAAGGUAGAAGGGUCAUGGA [Ruby 3]
output: 0.0342 µM

input: Look at this sequence and give its reported apparent KD of MS2 coat protein. AAAAGAAAAGGAUAUAAAAAGAAAAGUCAGGAUAUAGGAAACUAGAAGGGACAUGAGGAUCACCCAUGUAAAAG [Meechl Ex4 R2 m2]
output: 0.0359 µM

input: Give the measured apparent KD of MS2 coat protein of AACGCGUCAGGAUAUAGCAUAAAUUACGUAGUACGACCAUACUAGAAGGGACAUGAGGAUCACCCAUGUGGGUA [JR_Exc004_Sub207] .
output: 0.167 µM

input: Value lookup for apparent KD of MS2 coat protein; key = AAAACGGUAGGAUAUACAUGAGGAUCACCCAUGUUAAAUUUAAAAAUAAAAUUAAAAUGUAGAAGGACCAAAAA [Mai Tai1]
output: 0.0315 µM

---

apparent KD of MS2 coat protein by entry:
# System: MS2 coat protein
# protocol-text: apparent KD of MS2 coat protein; higher = weaker reporter binding
# measurement-parameters: Eterna round: R107; input ligand: arginine 13.2 mM
Report only the number, with the unit µM understood.

INSERT INTO results (item_sequence, measured_property, unit_of_measurement, measured_result) VALUES
  ('CGUAUGUAGACGGCCGCCACUGGAACCUGAGGAUCACCCAGGUACAGGGUGGGUAACUCGAGAGUCAGGACCGGGUCUACAUACA [Tryp B Ex t3]', 'apparent KD of MS2 coat protein', 'µM', 0.0194),
  ('AAGCUGCCAAGAACAUGGGUGAAAUGUGAUACCAGCUAGGAAACUAGCCCUUGGCAGCACAUGAGGAUCACCCAUGUAAUAAUAA [(T)''-(M)''-(T1)-(T2)-(M1)-(M2)_Design2_2/19/17]', 'apparent KD of MS2 coat protein', 'µM', 0.0757),
  ('AAGAAAACAUGAGCAAAGCUCAUGUGCGAAGGAGCGGCGGAAACGCCAGGUAGGUCGCGCACAUGAGCAUCAGCCAUGUGUAUCA [Omei Arginine B SS A v3]', 'apparent KD of MS2 coat protein', 'µM', 0.0435);

input: Any idea what its apparent KD of MS2 coat protein is? The sequence is GAAACGUAGGUGGAGCGGUGAAAUGGCGAUACCAGCGUGGAAACACGCCCUUGGCAGCGUUAGAACAUGAGGAUCACCCAUGUUU [#21 Exclusion-TheophyllineA]
output: 0.0193

input: Reported apparent KD of MS2 coat protein for CUCUCAUGAACAUGAGGAUCACCCAUGUAACGAGGACCGGUACGGCCGCCACUCGAACGUGGAAACCAAUCGAGUGAGGUGGGAG [Tryp A Ex t5b] : what is it?
output: 0.0459

input: Look up apparent KD of MS2 coat protein: CGGUAGGUAGGUCGAUAUCUACCCGUAGAAGGAGCGUAAGAAAAUACAGGUAGGUCGCUACGGAACAUGAGCAUCAGCCAUGUCC [SSArg A #12-Alt Ms2]
output: 0.0139

---

# System: MS2 coat protein
# protocol-text: apparent KD of MS2 coat protein; designed switch direction (-1 OFF switch, 1 ON switch): -1; higher = weaker reporter binding
# measurement-parameters: input ligand: microRNA oligo, concentration not stated
Each entry below lists one item and its recorded apparent KD of MS2 coat protein value.
Reply numerically in µM, unit not repeated.

INSERT INTO assay_data (item_sequence, assayed_system, measured_result) VALUES
  ('CUUGAGCAGGUAGGAUAUACGAUGUGUCGGCGAGUAGAAGGACCUGCGAUCCACUUGAGGAUCACCCAAGUUCGCAGGAGAACA [Mutated MS2 EX1.18] (Eterna round: R96, puzzle: Exclusion NG 1)', 'MS2 coat protein', 0.022),
  ('AACCUGAGGCAAAGCUUUAGGUGUACAUGAGGAUCACCCAUGUAGGAUAUGGUAAGCAAAGCUUACCAGAAGGACAUAAUGAUG [Mat - Exclusion NG 3 - Mod of JL - D48] (Eterna round: R96, puzzle: Exclusion NG 3)', 'MS2 coat protein', 0.0701);

input: Can you look up the measured apparent KD of MS2 coat protein of AAUAAAGGCCGAGGAUAUCGGAAAGGAAGUGUACGAGAAGGCGGCAAAAGAACAUGAGGAUCACCCAUGUGGGCCGAUCUUCCG [PowerStrip EXNG 1.2] (Eterna round: R96, puzzle: Exclusion NG 1) for me?
output: 0.01
